Target: acid ceramidase (Homo sapiens)
Sequence (Q13510 22-395): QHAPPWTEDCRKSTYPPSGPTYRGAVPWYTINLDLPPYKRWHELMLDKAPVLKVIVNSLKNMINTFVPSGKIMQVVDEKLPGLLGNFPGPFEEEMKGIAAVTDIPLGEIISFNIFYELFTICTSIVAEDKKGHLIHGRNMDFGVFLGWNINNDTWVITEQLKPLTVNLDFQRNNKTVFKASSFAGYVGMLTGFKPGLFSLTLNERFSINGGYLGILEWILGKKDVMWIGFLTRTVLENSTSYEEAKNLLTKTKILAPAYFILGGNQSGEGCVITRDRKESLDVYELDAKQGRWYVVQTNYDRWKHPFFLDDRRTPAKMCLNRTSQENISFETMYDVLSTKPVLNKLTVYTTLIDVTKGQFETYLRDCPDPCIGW
Assay: Acid ceramidase activity in vitro at pH 4.5
Conditions: pH 4.5, 50 μM C16-ceramide substrate

COMPOUND: CCCCCCCC/C=C\CCCCCCCC(=O)NCCO [N-oleoylethanolamine, reference compound]
IC50: ~500 µM
